Entry source: ChEMBL document CHEMBL1129171

Beta-1 adrenergic receptor (Homo sapiens, UniProt P08588): reported Ki for various compounds.
Sequence (P08588 whole entry): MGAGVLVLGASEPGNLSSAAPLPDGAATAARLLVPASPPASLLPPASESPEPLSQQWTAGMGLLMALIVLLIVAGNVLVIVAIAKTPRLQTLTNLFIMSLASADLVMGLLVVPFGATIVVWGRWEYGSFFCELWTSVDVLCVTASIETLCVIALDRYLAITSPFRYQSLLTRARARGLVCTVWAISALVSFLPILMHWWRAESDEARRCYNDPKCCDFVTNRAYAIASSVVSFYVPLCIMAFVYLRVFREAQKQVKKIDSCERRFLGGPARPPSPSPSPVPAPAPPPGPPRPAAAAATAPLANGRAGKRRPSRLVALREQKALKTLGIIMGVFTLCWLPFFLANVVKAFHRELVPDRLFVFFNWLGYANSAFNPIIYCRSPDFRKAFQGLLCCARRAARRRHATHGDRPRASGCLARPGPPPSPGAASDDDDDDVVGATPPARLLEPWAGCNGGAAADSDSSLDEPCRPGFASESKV
readout_kind: Ki (µM)

compound	readout_kind	result_value
C[C@H](Cc1ncc(CCCCC(=O)O)s1)NC[C@H](O)COc1ccccc1	Ki	0.44
C[C@H](Cc1ncc(CCC(=O)O)s1)NCC(O)c1cccc(Cl)c1 (stereo not given in full)	Ki	58.1
C[C@H](Cc1ncc(CCCC(=O)O)s1)NCC(O)c1cccc(Cl)c1 (stereo not given in full)	Ki	6.4
C[C@H](Cc1ncc(CCCC(=O)O)s1)NC[C@H](O)COc1ccccc1	Ki	1.3
C[C@H](Cc1ncc(CCC(=O)O)s1)NC[C@H](O)COc1ccccc1	Ki	3.44

====

Each entry below carries its recorded IA.
molecular target: Beta-3 adrenergic receptor (Homo sapiens, UniProt P13945); assay: stimulation of adenylyl cyclase activity in CHO-beta-3 adrenergic receptor cell membrane; expressed as maximal cyclase activity as a fraction of (-)-isoproterenol (IA = 1).; format: functional
Sequence (P13945 whole entry, looked up): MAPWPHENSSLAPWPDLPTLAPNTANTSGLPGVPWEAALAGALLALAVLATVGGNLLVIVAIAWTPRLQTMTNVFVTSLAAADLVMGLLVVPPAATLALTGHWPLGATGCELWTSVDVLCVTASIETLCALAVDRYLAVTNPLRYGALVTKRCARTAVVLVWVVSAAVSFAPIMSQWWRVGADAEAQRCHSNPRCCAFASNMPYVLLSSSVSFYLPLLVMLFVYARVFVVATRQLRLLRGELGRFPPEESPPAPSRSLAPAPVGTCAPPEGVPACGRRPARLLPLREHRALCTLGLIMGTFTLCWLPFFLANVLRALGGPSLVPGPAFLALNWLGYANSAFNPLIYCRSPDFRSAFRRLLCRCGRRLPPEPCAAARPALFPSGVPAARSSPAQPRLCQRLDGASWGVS
readout_kind: IA

compound	result_value
C[C@H](Cc1ncc(CCCC(=O)O)s1)NC[C@H](O)COc1ccccc1	0.72
C[C@H](Cc1ncc(CCC(=O)O)s1)NC[C@H](O)COc1ccccc1	0.56
C[C@H](Cc1ccc(OCC(=O)O)cc1)NC[C@H](O)c1cccc(Cl)c1	0.67
C[C@H](Cc1ncc(CCC(=O)O)s1)NCC(O)c1cccc(Cl)c1 (stereo partly specified)	0.39
O=C(O)COc1ccc(OCCNC[C@H](O)COc2ccccc2)cc1	0.71

====

molecular target: Beta-3 adrenergic receptor (Homo sapiens, UniProt P13945); assay: Compound was tested for its ability to stimulate adenylyl cyclase activity in CHO Beta-3 adrenergic receptor cell membrane.; format: functional
Sequence (P13945 whole entry): as the sequence (P13945 whole entry, looked up) above
pEC50: −log10 of the molar value.
Each entry below carries its recorded pEC50.

molecule	study_system	pEC50
C[C@H](Cc1ncc(CCC(=O)O)s1)NC[C@H](O)COc1ccccc1	Beta-3 adrenergic receptor (Homo sapiens, UniProt P13945)	5.56
C[C@H](Cc1ncc(CCC(=O)O)s1)NCC(O)c1cccc(Cl)c1 (stereo partly drawn)	Beta-3 adrenergic receptor (Homo sapiens, UniProt P13945)	4.56
C[C@H](Cc1ncc(CCCC(=O)O)s1)NC[C@H](O)COc1ccccc1	Beta-3 adrenergic receptor (Homo sapiens, UniProt P13945)	6.20

====

Each entry below carries its recorded pKi.
target: Beta-2 adrenergic receptor (Homo sapiens)
Sequence (P07550 whole entry): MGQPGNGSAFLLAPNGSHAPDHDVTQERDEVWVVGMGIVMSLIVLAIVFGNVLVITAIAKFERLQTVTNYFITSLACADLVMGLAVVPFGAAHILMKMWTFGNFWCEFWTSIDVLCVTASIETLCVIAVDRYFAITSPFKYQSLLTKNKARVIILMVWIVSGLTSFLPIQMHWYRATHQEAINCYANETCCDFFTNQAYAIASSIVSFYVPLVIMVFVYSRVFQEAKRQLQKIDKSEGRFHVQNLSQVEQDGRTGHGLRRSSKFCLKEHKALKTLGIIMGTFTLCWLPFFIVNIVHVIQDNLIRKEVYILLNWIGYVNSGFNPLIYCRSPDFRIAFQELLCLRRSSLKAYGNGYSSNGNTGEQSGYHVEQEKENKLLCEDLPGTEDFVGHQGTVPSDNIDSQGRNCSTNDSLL
pKi: −log10 of the molar value.
readout_kind: pKi

molecule	readout_kind	result_value
C[C@H](Cc1ncc(CCC(=O)O)s1)NCC(O)c1cccc(Cl)c1 (stereo not given in full)	pKi	4.94
C[C@H](Cc1ncc(CCCCC(=O)O)s1)NC[C@H](O)COc1ccccc1	pKi	6.82
C[C@H](Cc1ncc(CCCC(=O)O)s1)NCC(O)c1cccc(Cl)c1 (stereo not given in full)	pKi	4.86
C[C@H](Cc1ncc(CCCC(=O)O)s1)NC[C@H](O)COc1ccccc1	pKi	5.80
C[C@H](Cc1ncc(CCC(=O)O)s1)NC[C@H](O)COc1ccccc1	pKi	5.91

====

Beta-3 adrenergic receptor (Homo sapiens, UniProt P13945): reported pKi for various compounds.
pKi: −log10 of the molar value.

compound	pKi
C[C@H](Cc1ncc(CCC(=O)O)s1)NC[C@H](O)COc1ccccc1	5.45
C[C@H](Cc1ncc(CCC(=O)O)s1)NCC(O)c1cccc(Cl)c1 (stereo not given in full)	3.84
C[C@H](Cc1ncc(CCCC(=O)O)s1)NCC(O)c1cccc(Cl)c1 (stereo not given in full)	4.44
C[C@H](Cc1ncc(CCCC(=O)O)s1)NC[C@H](O)COc1ccccc1	6.12
C[C@H](Cc1ncc(CCCCC(=O)O)s1)NC[C@H](O)COc1ccccc1	6.41
